# assay_notes: Caco-2 cell permeability
# Format: in vitro ADME
# experimental_parameters: human, 10 μM, 2 h, 37 °C
Could you please report measured Papp B→A at 2 h, 10 µM for the items listed next?
# output: bare number, implied unit ×10⁻⁶ cm/s

Form field Papp B→A at 2 h, 10 µM, entry O=C(NC12CC3CC(F)(CC(C1)c1ccccc13)C2)N[C@H]1CC[C@H](Oc2ccc(C(=O)O)cc2)CC1 : 21.9

Form field Papp B→A at 2 h, 10 µM, entry O=C(NC12CC3CC(Cl)(CC(C1)c1ccccc13)C2)N[C@H]1CC[C@H](Oc2ccc(C(=O)O)cc2)CC1 : 4.66

Form field Papp B→A at 2 h, 10 µM, entry CC12CC3CC(NC(=O)N[C@H]4CC[C@H](Oc5ccc(C(=O)O)cc5)CC4)(CC(C1)c1ccccc13)C2 : 12.4

====

# assay_notes: Pharmacokinetic study after IP administration
# Format: in vivo, male C57BL/6 mice
# experimental_parameters: male, C57BL/6, mouse, in vivo, 3 mg/kg, 3 mg/kg ip, 1 h; read-out: Mean concentration in mouse plasma
assay_readout: concentration at 1 h (µg/mL)
# output: bare number, implied unit µg/mL

Form field concentration at 1 h, entry O=C(NC12CC3CC(Cl)(CC(C1)c1ccccc13)C2)N[C@H]1CC[C@H](Oc2ccc(C(=O)O)cc2)CC1 [Compound 22] : 1.45

====

# assay_notes: Microsomal stability
# Format: in vitro ADME, human
# experimental_parameters: after 60 min incubation, NADP, 37 °C
Label 1.0 when microsomal stability, percentage of remaining compound (human) is strictly below 70%; at or above that, label 0.0.

Please state whether microsomal stability, percentage of remaining compound (human) is below 70% for CC12CC3CC(NC(=O)N[C@H]4CC[C@H](Oc5ccc(C(=O)O)cc5)CC4)(CC(C1)c1ccccc13)O2
0.0

Please state whether microsomal stability, percentage of remaining compound (human) is below 70% for O=C(NC12CC3CC(Cl)(CC(C1)c1ccccc13)C2)N[C@H]1CC[C@H](Oc2ccc(C(=O)O)cc2)CC1
0.0

Please state whether microsomal stability, percentage of remaining compound (human) is below 70% for CC12CC3CC(NC(=O)Nc4ccc(F)c(F)c4F)(CC(C1)c1ccccc13)C2
1.0

Please state whether microsomal stability, percentage of remaining compound (human) is below 70% for O=C(NC12CC3CC(F)(CC(C1)c1ccccc13)C2)N[C@H]1CC[C@H](Oc2ccc(C(=O)O)cc2)CC1
0.0

Please state whether microsomal stability, percentage of remaining compound (human) is below 70% for CC12CC3CC(NC(=O)Nc4ccc(F)c(F)c4F)(CC(C1)c1ccccc13)O2
0.0

====

Could you please report measured Tmax for the items listed next?
# assay_notes: Pharmacokinetic study after IP administration
# Format: in vivo, male C57BL/6 mice
# experimental_parameters: male, C57BL/6, mouse, in vivo, ip, 3 mg/kg
# output: bare number, implied unit h

Form field Tmax, entry CC12CC3CC(NC(=O)N[C@H]4CC[C@H](Oc5ccc(C(=O)O)cc5)CC4)(CC(C1)c1ccccc13)C2 : 0.5

Form field Tmax, entry O=C(NC12CC3CC(Cl)(CC(C1)c1ccccc13)C2)N[C@H]1CC[C@H](Oc2ccc(C(=O)O)cc2)CC1 : 2

====

# assay_notes: Pharmacokinetic study after IP administration
# Format: in vivo, male C57BL/6 mice
# experimental_parameters: male, C57BL/6, mouse, in vivo, 3 mg/kg, 3 mg/kg ip, 0.25 h; read-out: Mean concentration in mouse plasma
assay_readout: concentration at 0.25 h (ng/mL)
# output: bare number, implied unit ng/mL

Form field concentration at 0.25 h, entry O=C(NC12CC3CC(Cl)(CC(C1)c1ccccc13)C2)N[C@H]1CC[C@H](Oc2ccc(C(=O)O)cc2)CC1 [Compound 22] : 355

Source listed as paper PMC8634379.
